System Name: HLA-A*0201 (human)
Procedure Details: competition with 125I-labelled standard peptide 941.01 for purified HLA, gel filtration
Condition Description: scale: ratio
Assignment: determine reported binding affinity ratio for the given binders.
I'd appreciate a reply containing only the number, no unit.

Task item: Name the recorded binding affinity ratio for GIDPQSGAAV (modifications not checked) [PSM peptide … (position 385)] .
Reply: 0.0002

Task item: Name the recorded binding affinity ratio for WATEDTMTKL (modifications not checked) [… (PAP, position 226, 10 amino acids)] .
Reply: 0.0002

Task item: Name the recorded binding affinity ratio for VVKVLGLPT (modifications not checked) [… (Kallikrein, position 135, 9 amino acids)] .
Reply: -0.0001

Task item: Name the recorded binding affinity ratio for VTWIGAAPL (modifications not checked) [… (PSA, position 8, 9 amino acids)] .
Reply: 0.011
